Cited source for all entries: PubChem BioAssay

# Test system: Human papillomavirus type 1a E7 protein (residues 1-88)
# Test Details: HPV1a E7 small-molecule binders, primary screen, biochemical, small-molecule microarray, residues 1-88, 635 nm (AID 1129)
# Condition Summary: small-molecule microarray binding, fluorescence 635 nm; higher = more signal
Entry flag: 1 if composite z-score reaches -0.2; -1 if it does not.

As a guide, the following entries are already answered.
CC(C)=CCCC(C)=CCON=C1C[C@@H](O)[C@@H](O)[C@@H]2[C@@H]3C(=O)N(c4cccc(Oc5ccccc5)c4)C(=O)[C@@H]3CC[C@H]12 | 1
COC(=O)[C@@H]1CC[C@H](C)[C@@H](c2ccc(Br)cc2)N1C[C@H](O)CN=[N+]=[N-] | -1
COC(=O)C(C(=O)OC)C1CCCC(=O)C1 (stereo not drawn) | 1

Q: Would you say `COc1ccc(OC[C@H]2CN3[C@@H](CC[C@@H](C)[C@@H]3c3ccc(Br)cc3)C(=O)O2)cc1` shows composite z-score at minimum -0.2?
A: 1
